From: ChEMBL document CHEMBL1127794

Answer each item with its documented pKi.
# target-under-test: Adenosine receptor A3 (Rattus norvegicus, UniProt P28647)
# Sequence (P28647 whole entry): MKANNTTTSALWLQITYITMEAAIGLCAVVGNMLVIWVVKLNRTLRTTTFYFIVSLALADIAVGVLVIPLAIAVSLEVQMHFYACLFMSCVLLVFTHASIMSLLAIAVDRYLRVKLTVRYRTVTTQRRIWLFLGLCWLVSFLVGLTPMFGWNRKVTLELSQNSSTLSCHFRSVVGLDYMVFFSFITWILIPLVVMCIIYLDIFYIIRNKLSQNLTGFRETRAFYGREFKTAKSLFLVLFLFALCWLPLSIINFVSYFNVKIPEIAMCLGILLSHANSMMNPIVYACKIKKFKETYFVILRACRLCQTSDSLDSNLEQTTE
The read-out pKi is expressed as -log10 of concentration in moles per litre.

Ask: Output pKi of Cn1c(=O)c2c(nc(/C=C/c3cccc(NC(=O)CCCC(=O)O)c3)n2C)n(C)c1=O
Reply: 3.54

Ask: Output pKi of CCCCn1c(=O)c2nc(CCCC(=O)O)[nH]c2n(CCCC)c1=O
Reply: 3.88

Ask: Output pKi of Cn1c(=O)c2c(nc(/C=C/c3cccc(NC(=O)CCC(=O)O)c3)n2C)n(C)c1=O
Reply: 3.72
